Test: Quantitative High-Throughput drug screen in 47 multiple myeloma cell lines against the NCATS MIPE library collection: U266_ATCC cell viability assay (AID 1919864); note: nearly all actives have a fitted effect of over 35% in size
Details: U266 myeloma viability, CellTiter-Glo ATP luminescence, 48 h; series mostly up to 45.8 µM
Inconclusive results are not listed. Calls of active or inactive are those of the source. Calls come from the whole dose curve; as a rule, active = well fitted cell-killing curve with a large enough effect; inconclusive = small, poorly fitted or top-dose-only effect, or effect the other way; inactive = no such curve, though single readings can be large or run the other way. Peptide text beside a SMILES is read from it.
Select the matching outcome among active, inactive

{"columns": ["molecule", "discrete-label"],
 "data": [
  ["CCC1=C(C)CN(C(=O)NCCc2ccc(S(=O)(=O)NC(=O)NC3CCC(C)CC3)cc2)C1=O (stereo not given)", "inactive"]
]}

Q: In this assay, the call recorded for COC(=O)[C@H](Cc1ccccc1)NC(=O)[C@@H](N)CC(=O)O (H-Asp-Phe-OMe) was what?
A: inactive

Q: In this assay, the call recorded for CC(C)[C@H](N)C(=O)OCCOCn1cnc2c(=O)[nH]c(N)nc21 was what?
A: inactive

Q: In this assay, the call recorded for O=c1c(O)c(-c2ccc(O)cc2O)oc2cc(O)cc(O)c12 was what?
A: inactive

Q: In this assay, the call recorded for CN(C)C(=O)COC(=O)Cc1ccc(OC(=O)c2ccc(N=C(N)N)cc2)cc1 was what?
A: active

###

Test: Quantitative High-Throughput drug screen in 47 multiple myeloma cell lines against the NCATS MIPE library collection: KMS28BM_JCRB cell viability assay (AID 1919874); note: nearly all actives have a fitted effect of over 35% in size
Conditions: CellTiter-Glo ATP, 48 h; series mostly up to 45.8 µM
Results filed as inconclusive are left out. Activity calls are given as the source filed them. Calls follow the shape of the dose curve; as a rule, active = well fitted cell-killing curve with a large enough effect; inconclusive = small, poorly fitted or top-dose-only effect, or effect the other way; inactive = no such curve, though single readings can be large or run the other way.
Select the matching outcome among active, inactive

Examples from the recorded data:
{"columns": ["compound", "discrete-label"],
 "data": [
  ["CCCCN(CCCC)CCC(O)c1cc2c(Cl)cc(Cl)cc2c2cc(C(F)(F)F)ccc12 (centres undefined)", "inactive"],
  ["CC(C)C[C@H](NC(=O)[C@H](Cc1ccccc1)NC(=O)c1cnccn1)B(O)O", "active"]
]}

# next compound below
Q: In this assay, the call recorded for C[C@]12CCC(=O)C=C1CC[C@@H]1[C@H]2[C@@H](O)C[C@@]2(C)[C@H]1CC[C@]2(O)C(=O)CO was what?
A: inactive

###

Assay: qHTS Validation Assay to Find Inhibitors of Chronic Active B-Cell Receptor Signaling (AID 485345)
Conditions: ABC-DLBCL cells, chronic BCR signaling reporter, CBG luciferase; series mostly up to 46.1 µM
Inconclusive results are not listed. The source made the active and inactive calls. Calls follow the shape of the dose curve; as a rule, active = well fitted curve in the direction sought with a large enough effect in the main read-out, with a control signal flat (not every such curve was filed as active); inconclusive = small, poorly fitted or top-dose-only effect, or effect the other way, or a change in a side signal; inactive = no such curve, though single readings can be large or run the other way.
Select the matching outcome among active, inactive

Examples from the recorded data:
{"columns": ["molecule", "discrete-label"],
 "data": [
  ["O=C(CCc1ccc(O)cc1)c1c(O)cc(O)cc1O", "inactive"],
  ["CC(=O)O[C@H]1C(=O)[C@@]2(C)C([C@H](OC(=O)c3ccccc3)[C@]3(O)C[C@H](OC(=O)[C@H](O)[C@@H](NC(=O)c4ccccc4)c4ccccc4)C(C)=C1C3(C)C)[C@]1(OC(C)=O)CO[C@@H]1C[C@@H]2O (stereo partly drawn)", "inactive"]
]}

Q: In this assay, the call recorded for Nc1ccn([C@@H]2O[C@H](CO)[C@@H](O)C2O)c(=O)n1 (stereo partly drawn) was what?
A: inactive

Q: In this assay, the call recorded for O=c1cc(N2CCOCC2)oc2c(-c3ccccc3)cccc12 was what?
A: active

Q: In this assay, the call recorded for CN(C)CCCC1(c2ccc(F)cc2)OCc2cc(C#N)ccc21 (stereo not drawn) was what?
A: inactive

Q: In this assay, the call recorded for Cc1c(OCC(F)(F)F)ccnc1CS(=O)c1nc2ccccc2[nH]1 (stereo not drawn) was what?
A: inactive

Q: In this assay, the call recorded for O=c1c(O)c(-c2ccc(O)cc2O)oc2cc(O)cc(O)c12 was what?
A: inactive

Q: In this assay, the call recorded for CNC[C@H](O)c1ccc(O)c(O)c1 was what?
A: inactive

Q: In this assay, the call recorded for O=C1c2c(O)cc(O)cc2OC(c2ccc(O)c(O)c2)C1O (stereo not drawn) was what?
A: inactive

Q: In this assay, the call recorded for COc1ccccc1N1CCN(CCN(C(=O)C2CCCCC2)c2ccccn2)CC1 was what?
A: inactive

Q: In this assay, the call recorded for O=C1NC(=O)C(c2ccccc2[N+](=O)[O-])=C1Nc1ccc(O)c(Cl)c1 was what?
A: inactive

Q: In this assay, the call recorded for OC(CN1CCN(c2cccc(Cl)c2)CC1)C(c1ccccc1)c1ccccc1 (stereo not drawn) was what?
A: inactive

Q: In this assay, the call recorded for O=C(c1ccccc1)c1ccc2n1CCC2C(=O)O (stereo not drawn) was what?
A: inactive
